Data credit: patent US20190071490A1

Molecular target: T1, rat α-CGRP (1-37) (rat, C-terminal amide; N-terminal biotin when captured on the SA chip)
T1 construct: also called rat α (1-37); α-rat
T1 peptide: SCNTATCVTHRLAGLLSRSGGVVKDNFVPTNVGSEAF
Experiment: Biacore, 37°C, Fab over CGRP on SA chip
Readout Kind: koff (s⁻¹)
Please reply with the bare figure in s⁻¹ and do not write the unit itself.

INPUT: Look up koff for this binder: G1 variant M29 Fab (Fab, V domains shown, Fab; constant domains as m1) VH: EVQLVESGGGLVQPGGSLRLSCAASGFTFSNYWISWVRQAPGKGLEWVAEIRSESDASATHYAEAVKGRFTISRDNAKNSLYLQMNSLRAEDTAVYYCTVYFDYGLAIQNYWGQGTLVTVSS VL: EIVLTQSPATLSLSPGERATLSCKASKNVGTYVSWYQQKPGQAPRLLIYGASNRYLGIPARFSGSGSGTDFTLTISSLEPEDFAVYYCSQSYNYPYTFGQGTKLEIK
OUTPUT: 0.00359

INPUT: Also check G1 variant M27 Fab (Fab, V domains shown, Fab; constant domains as m1) VH: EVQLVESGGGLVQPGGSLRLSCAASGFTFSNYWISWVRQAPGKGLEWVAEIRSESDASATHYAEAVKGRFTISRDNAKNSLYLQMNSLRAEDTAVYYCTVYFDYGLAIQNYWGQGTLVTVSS VL: EIVLTQSPATLSLSPGERATLSCKASKNVATYVSWYQQKPGQAPRLLIYGASNRYLGIPARFSGSGSGTDFTLTISSLEPEDFAVYYCSQSYNYPYTFGQGTKLEIK
OUTPUT: 0.00341
